B1: Twister Ribozyme (parent)
chain: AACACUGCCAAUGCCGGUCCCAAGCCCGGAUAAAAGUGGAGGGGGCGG

Variants of: B1
Test: self-cleavage, relative activity (ratio to wild type); higher = more cleavage; co-transcriptional
So I've got a bunch of variants here, and I need their self-cleavage values.
One number for each entry.

AACACUGCCACUGCCGGUCCCAAGCCCGGAUAAAAGUGGAGGGGGCAG [A11C G47A]: 0.836
AACACUGCCAAUGCCGGUCCCAAGCCCAGAUAAAAGUGGAGGGGUCGG [G28A G45U]: 0.375
AACACUGCCAAUGCCGGUUCCUAGCCCGGAUAAAAGUGGAGGGGGCGG [C19U A22U]: 0.601
AACACUGCCAAUGCCGGUUCCAAGCCCGGAUAAAAGUGGAUGGGGCGG [C19U G41U]: 0.125

Please look at the items below and tell me self-cleavage for each one, in order.
1. AACGCUGCCAAUGCCGGUCCCAAGCCCGGAUAAAAGUGGAGGAGGCGG [A4G G43A]
2. AACACUGCCACUGCCGGUCCCAAGCCCAGAUAAAAGUGGAGGGGGCGG [A11C G28A]

1. 0.165
2. 0.656

Dear reader, for each entry below, please note its self-cleavage.
1. AACUCUGUCAAUGCCGGUCCCAAGCCCGGAUAAAAGUGGAGGGGGCGG [A4U C8U]
2. AGCGCUGCCAAUGCCGGUCCCAAGCCCGGAUAAAAGUGGAGGGGGCGG [A2G A4G]
3. ACCACUGCCAAUGCCGGUCCCAAGCCCGGAUAAAAGUGGAAGGGGCGG [A2C G41A]

1: 0.0539; 2: 0.212; 3: 0.0488

For every item below, please supply its self-cleavage.
1. AACACUGCCAAUGCCGGUCCGAAGCCCGGAUAAAAGUGGAGGGGGCGC [C21G G48C]
2. AGCACUGCCAAUGCCGGUCCCAAGCCCGGAUAAAAGUGGAGGGGGCAG [A2G G47A]

1. 0.0934
2. 0.232
